- cond: buffer; pH 7.4; 200.0 µM

molecule: O=[N+]([O-])c1cc([N+](=O)[O-])c2nonc2c1Nc1ccc(O)cc1
solubility kinetic: > 47.6 µg/mL
--
molecule: NC(=O)C1CCN(C(=O)c2cc(-c3ccccc3Cl)nc3ccccc23)CC1
solubility kinetic: > 59.1 µg/mL
--
molecule: CCC1(c2ccc(Cl)cc2)NC(=O)N(CC(=O)NC2(C#N)CCCCC2)C1=O (stereo not given)
solubility kinetic: > 60.4 µg/mL
--
molecule: Cc1ccc(-c2csc(NC(=O)CN3CCOCC3)n2)cc1
solubility kinetic: > 47.6 µg/mL
--
molecule: N#Cc1ccc2c(c1)nc1ccccn12
solubility kinetic: > 29 µg/mL
--
molecule: Cc1cc(C(=O)N(C)C2CCCCC2)no1
solubility kinetic: > 33.3 µg/mL
--
molecule: Cc1ccccc1-n1nc2c(c1NC(=O)CC(C)C)CS(=O)C2 (stereo not given)
solubility kinetic: > 49.7 µg/mL
--
molecule: CCOc1ccc(CN(C)C(=O)c2cc3ccccc3o2)cc1OC
solubility kinetic: > 50.9 µg/mL
--
molecule: CCOC(=O)C1CCCN(C(=O)c2[nH]c3ccc(OC)cc3c2C)C1 (stereo not given)
solubility kinetic: > 51.7 µg/mL
--
molecule: Cc1ccnc(NC(=O)Cc2c(F)cccc2Cl)c1
solubility kinetic: > 41.8 µg/mL
--
molecule: CCOc1ccc(NC(=O)Cc2c(C(=O)O)n(C)c3ccccc23)cc1
solubility kinetic: > 52.9 µg/mL
--
molecule: CCNC(=O)CC1C(=O)N(c2ccccc2)C(=O)N1CCOC (stereo not given)
solubility kinetic: > 47.9 µg/mL
--
molecule: Cc1ccc(S(=O)(=O)N(C)C)cc1NC(=O)Nc1ccccc1
solubility kinetic: < 0.2 µg/mL
--
molecule: Cc1ccccc1NC(=O)COC(=O)CC1CCCC1
solubility kinetic: > 41.3 µg/mL
--
molecule: COc1ccc(S(=O)(=O)n2ccnc2C)c(C)c1C
solubility kinetic: > 42.1 µg/mL

Data provenance is PubChem BioAssay AID1996.
